- Test system: sweetness of a reference water solution containing 4% sucrose (sucrose base)
- assay details: Sensory panel of 25 trained panelists, sweet taste modifying effect in 4% sucrose, with nose-clip
- Assay type: in vivo, human
- stated conditions: 5 ppm in 4% sucrose; scale of −5 (strong masking) to 5 (strong enhancing), 0 = sucrose base
Provide the reported sweetness, With nose-clip (NC) of each item.

-- ask Request the reported sweetness, With nose-clip (NC) associated with COc1ccc(-c2cc(=O)c3c(OC)c(OC)c(OC)c(OC)c3o2)cc1OC [NOB, 5,6,7,8,3′,4′-hexamethoxyflavone, reference compound]
-- reply 0.37

-- ask How about `COc1ccc(-c2cc(=O)c3c(OC)c(OC)c(OC)c(OC)c3o2)cc1` ?
-- reply −0.30

-- ask Field entry: `COc1ccc(-c2cc(=O)c3c(OC)c(OC)c(OC)cc3o2)cc1OC`
-- reply 0.17

-- ask Note, next up: `COc1ccc(-c2oc3cc(OC)c(OC)c(OC)c3c(=O)c2OC)cc1OC`
-- reply 0.57

-- ask How about this compound: `COc1ccc(-c2oc3c(OC)c(OC)c(OC)c(OC)c3c(=O)c2OC)cc1OC`
-- reply 0.21

-- ask Ok, now `COc1ccc(-c2cc(=O)c3c(OC)c(OC)c(OC)cc3o2)cc1`
-- reply 0.55

FYI, the data here is from patent US20210161188A1.
